The values you see were collected from patent US20230390273A1.

experiment: Plasma and inner ear fluid exposure after single trans-tympanic injection in thermoreversible hydrogel composition (Example 4); format: in vivo, male Wistar rats; details: male, Wistar, other: trans-tympanic injection; rat inner ear fluid, trans-tympanic 300 μg, thermoreversible hydrogel, T0 + 24 hours; read-out: Concentration of paliroden (fumarate salt), IEF, Mean
Counter-ions that a name gives are not always drawn.
reported_endpoint: concentration at 24 h (ng/mL)
Field format: number, assumed ng/mL, no unit text.

Prompt: Given FC(F)(F)c1cccc(C2=CCN(CCc3ccc(-c4ccccc4)cc3)CC2)c1 [paliroden (fumarate salt)] , state its recorded concentration at 24 h.
Response: 1370

---

test: Plasma and inner ear fluid exposure after single trans-tympanic injection in thermoreversible hydrogel composition (Example 4); assay type: in vivo, male Wistar rats; conditions: male, Wistar, plasma, other: trans-tympanic injection, 300 μg in one ear; rat, trans-tympanic 300 μg one ear, suspension in thermoreversible hydrogel, T0 + 168 hours; read-out: Concentration of paliroden (fumarate salt), Plasma, Mean
Where a name gives a salt, the structure may show the parent alone.
reported_endpoint: concentration at 168 h (ng/mL)
Give just the numeric value; ng/mL need not be written.

Prompt: So what does the record say about concentration at 168 h for FC(F)(F)c1cccc(C2=CCN(CCc3ccc(-c4ccccc4)cc3)CC2)c1 [paliroden (fumarate salt)] ?
Response: 0.2

---

Assay: Plasma and inner ear fluid exposure after single oral gavage (Example 1)
Format: in vivo, male Wistar rats
Settings: male, Wistar; rat inner ear fluid, single oral 30 mg/kg, T0 + 4 hours; read-out: Concentration of paliroden (fumarate salt), IEF, Mean
Description: Two compositions were prepared: composition A and composition B. Composition A is an aqueous solution comprising: • 6 mg/mL (free base equivalent) of fumarate salt of 1-[2-(4-biphenylyl)ethyl]-4-(3-trifluoromethylphenyl)-1,2,3,6-tetrahydropyridine (=paliroden fumarate), and • 0.6% w/v of methylcellulose with respect to the total volume of the aqueous solution. […]
Counter-ions that a name gives are not always drawn.
reported_endpoint: concentration at 4 h (ng/mL)
// return numeric value only (unit: ng/mL, not printed)

Prompt: Report concentration at 4 h for FC(F)(F)c1cccc(C2=CCN(CCc3ccc(-c4ccccc4)cc3)CC2)c1 [paliroden (fumarate salt)] please.
Response: 2.6

---

assay: Plasma and inner ear fluid exposure after single oral gavage (Example 1); assay type: in vivo, male Wistar rats; conditions: male, Wistar, plasma; rat, single oral 30 mg/kg, T0 + 6 hours; read-out: Concentration of paliroden (fumarate salt), Plasma, Mean
Counter-ions that a name gives are not always drawn.
reported_endpoint: concentration at 6 h (ng/mL)
Express your answer in ng/mL, writing the number without its unit.

Prompt: State the recorded concentration at 6 h for this entry: FC(F)(F)c1cccc(C2=CCN(CCc3ccc(-c4ccccc4)cc3)CC2)c1 [paliroden (fumarate salt)]
Response: 4.4

---

assay: Plasma and inner ear fluid exposure after single trans-tympanic injection in thermoreversible hydrogel composition (Example 4); type: in vivo, male Wistar rats; settings: male, Wistar, plasma, other: trans-tympanic injection; rat, trans-tympanic 300 μg one ear, suspension in thermoreversible hydrogel, T0 + 24 hours; read-out: Concentration of paliroden (fumarate salt), Plasma, Mean
Where a name gives a salt, the structure may show the parent alone.
reported_endpoint: concentration at 24 h (ng/mL)
Give your result in ng/mL as a bare value.

Prompt: concentration at 24 h lookup needed for FC(F)(F)c1cccc(C2=CCN(CCc3ccc(-c4ccccc4)cc3)CC2)c1 [paliroden (fumarate salt)] , thanks.
Response: 0.4

---

experiment: Plasma and inner ear fluid exposure after single oral gavage (Example 1); format: in vivo, male Wistar rats; conditions: male, Wistar; rat inner ear fluid, single oral 20 mg/kg, T0 + 24 hours; read-out: Concentration of xaliproden (hydrochloride salt), IEF, Mean
Where a name gives a salt, the structure may show the parent alone.
reported_endpoint: concentration at 24 h (ng/mL)
Use ng/mL as the unit, but write only the number.

Prompt: What value of concentration at 24 h has been reported for the following compound? FC(F)(F)c1cccc(C2=CCN(CCc3ccc4ccccc4c3)CC2)c1 [xaliproden (hydrochloride salt)]
Response: 16

---

assay: Plasma and inner ear fluid exposure after single trans-tympanic injection in lipid-based mucoadhesive solution (Example 3); assay type: in vivo, male Wistar rats; settings: male, Wistar, plasma, other: trans-tympanic injection, rat, trans-tympanic 243 μg one ear, T0 + 1 hour, read-out: Concentration of paliroden (fumarate salt), Plasma, Mean
Structures can show the parent of a compound that is named as a salt.
reported_endpoint: concentration at 1 h (ng/mL)
Number only, in ng/mL; omit the unit.

Prompt: Param item = FC(F)(F)c1cccc(C2=CCN(CCc3ccc(-c4ccccc4)cc3)CC2)c1 [paliroden (fumarate salt)] ; retrieve measured concentration at 1 h.
Response: 0.9

---

assay: Plasma and inner ear fluid exposure after single trans-tympanic injection in thermoreversible hydrogel composition (Example 4); assay type: in vivo, male Wistar rats; details: male, Wistar, plasma, other: trans-tympanic injection, 150 μg in one ear; rat, trans-tympanic 150 μg one ear, suspension in thermoreversible hydrogel, T0 + 24 hours; read-out: Concentration of xaliproden (hydrochloride salt), Plasma, Mean
Structures can show the parent of a compound that is named as a salt.
reported_endpoint: concentration at 24 h (ng/mL)
Use ng/mL as the unit, but write only the number.

Prompt: Need concentration at 24 h, item FC(F)(F)c1cccc(C2=CCN(CCc3ccc4ccccc4c3)CC2)c1 [xaliproden (hydrochloride salt)]
Response: 9.2

---

test: Plasma and inner ear fluid exposure after single trans-tympanic injection in thermoreversible hydrogel composition (Example 4); format: in vivo, male Wistar rats; settings: male, Wistar, other: trans-tympanic injection, 150 μg in one ear; rat inner ear fluid, trans-tympanic 150 μg, thermoreversible hydrogel, T0 + 1 hour, n = 4; read-out: Concentration of xaliproden (hydrochloride salt), IEF, Mean
Structures can show the parent of a compound that is named as a salt.
reported_endpoint: concentration at 1 h (ng/mL)
// units = ng/mL; emit number, no label

Prompt: Which concentration at 1 h value is on record for FC(F)(F)c1cccc(C2=CCN(CCc3ccc4ccccc4c3)CC2)c1 [xaliproden (hydrochloride salt)] ?
Response: 5610

---

assay: Plasma and inner ear fluid exposure after single trans-tympanic injection in thermoreversible hydrogel composition (Example 4); assay type: in vivo, male Wistar rats; settings: male, Wistar, other: trans-tympanic injection, 150 μg in one ear; rat inner ear fluid, trans-tympanic 150 μg, thermoreversible hydrogel, T0 + 168 hours; read-out: Concentration of xaliproden (hydrochloride salt), IEF, Mean
Structures can show the parent of a compound that is named as a salt.
reported_endpoint: concentration at 168 h
Provide the measurement as a number trailed by its unit.

Prompt: // lookup concentration at 168 h for FC(F)(F)c1cccc(C2=CCN(CCc3ccc4ccccc4c3)CC2)c1 [xaliproden (hydrochloride salt)]
Response: 117 ng/mL
